Exercise: state measured growth inhibition for each of the molecules provided.
measurement description: NCI Yeast Anticancer Drug Screen. Data for the bub3 strain (AID 167)
particulars: S. cerevisiae bub3 mutant strain, at 50.0 µM, active compounds read high
About 79,000 compounds went through this panel and 15% of them were active in at least one assay; those are over-represented in the sample as a whole.
Numbers only; they are read as %.

Which growth inhibition is listed for NCC(O)CSP(=O)(O)O (configuration not stated) ?
-3.8

Which growth inhibition is listed for CC(=O)O[C@H]1C(=O)[C@@]2(C)[C@H]([C@H](OC(=O)c3ccccc3)[C@@]3(O)C[C@H](O)C(C)=C1C3(C)C)[C@]1(OC(C)=O)CO[C@@H]1C[C@@H]2O ?
12.5

Which growth inhibition is listed for Fc1ccccc1N=C=S ?
14.6

Which growth inhibition is listed for O=NC1C(=O)NC(=O)NC1=O ?
11.7

Which growth inhibition is listed for Clc1ccc(C2CC3CCCCN3O2)cc1 (configuration not stated) ?
11.6

Which growth inhibition is listed for CCCC(=O)[O-].CCCC(=O)[O-].NCCN.NCCN.[Co+3].[O-][Cl+3]([O-])([O-])[O-] ?
-0.45

Which growth inhibition is listed for c1ccc2c(c1)sc1ccccc12 ?
-8.6

Which growth inhibition is listed for N=C(N)N.[O]=[Cr](=[O])([OH])[OH] ?
26.8

Which growth inhibition is listed for NNc1nncn1N ?
-17.5

Which growth inhibition is listed for O=[N+]([O-])c1cc2n[nH]nc2c2nonc12 ?
27.1

Which growth inhibition is listed for CC(C)=CCC12Cc3ccc(O)cc3C(C(C)CN1)C2C (configuration not stated) ?
10.7

Which growth inhibition is listed for COc1cc2c(c(OC)c1OC)-c1ccc(SC)c(=O)cc1[C@@H](NC(C)=O)CC2 ?
-27.4

Which growth inhibition is listed for CCC(C)OP(=S)(S)OC(C)CC.[Zn+2] (configuration not stated) ?
25.2

Which growth inhibition is listed for CCNP(=O)(OCC)OCC ?
7.6

Which growth inhibition is listed for N/C(=N\N=C\c1ccc(O)cc1O)N[N+](=O)[O-] ?
3.65

Which growth inhibition is listed for O=Cc1ccccc1O.[Zn+2] ?
0.75

Which growth inhibition is listed for O=S(=O)(O)C1CCC(O)C2[N-]CCCC21.O=S(=O)(O)C1CCC(O)C2[N-]CCCC21.[Ni+2] (configuration not stated) ?
8.4

Which growth inhibition is listed for S=C(N=Nc1ccccc1)NNc1ccccc1.[Zn+2] ?
36

Which growth inhibition is listed for Cc1ccc2nc(CCl)[nH]c2c1 ?
-18.1

Which growth inhibition is listed for CCN1CCC2OCOC2C1 (configuration not stated) ?
-0.05

Which growth inhibition is listed for S=P(N1CCCCC1)(N1CCCCC1)N1CCCCC1 ?
-4.2

Which growth inhibition is listed for CCOC(=O)C[Se]CC(=O)OCC ?
43.8

Which growth inhibition is listed for NC(c1ccccc1)C(Cl)c1ccccc1 (configuration not stated) ?
14.9

Which growth inhibition is listed for O=C(Cc1nc2ccccc2c(=O)n1-c1c(Cl)cccc1Cl)c1ccncc1 ?
-2.95

Which growth inhibition is listed for NS(=O)(=O)c1cc(N(CCCl)CCCl)c([N+](=O)[O-])cc1[N+](=O)[O-] ?
-16.1

Which growth inhibition is listed for O=C(Nc1ccccc1F)C(Cl)(Cl)Cl ?
16.7

Which growth inhibition is listed for Brc1ccc(-c2csc3c4ccccc4cc[n+]23)cc1 ?
21.8

Which growth inhibition is listed for Cc1ccc([NH-])c([NH-])c1.[Cl][Pt+2][Cl] ?
-2.85

Which growth inhibition is listed for C=C1[C@@H](C)[C@H]2[C@H](Cc3ccccc3)NC(=O)[C@]23OC(=O)/C=C/[C@H](O)CCC[C@@H](C)C/C=C/[C@H]3[C@@H]1O ?
58.8

Which growth inhibition is listed for O=C(CBr)OCCOC(=O)CBr ?
28.5

Which growth inhibition is listed for C=C1CC2C3CC=C4CC(OC(C)=O)CCC4(C)C3CCC2(C)C1=O (configuration not stated) ?
15.8

Which growth inhibition is listed for O=C(O)C(Oc1nc(=S)[nH]c(=S)[nH]1)(c1ccc(Cl)cc1)c1ccc(Cl)cc1 ?
-10.7

Which growth inhibition is listed for CCOP(=O)(OCC)OP(=O)(OCC)OCC ?
-49.4

Which growth inhibition is listed for C#CC(=O)[O][Sn]([c]1ccccc1)([c]1ccccc1)[c]1ccccc1 ?
98.9

Which growth inhibition is listed for CCCC1(C(C)C)C(=O)NC(=S)NC1=O ?
-10.6

Which growth inhibition is listed for COc1cc2c(cc1O)CNCC2c1ccc(O)c(C)c1 (configuration not stated) ?
-11.4

Which growth inhibition is listed for COc1cccc(C2CC(=O)c3cccn32)c1 (configuration not stated) ?
-5.25

Which growth inhibition is listed for CC1=C(C)C(=O)O[C@@H]([C@](C)(O)[C@]2(O)CC[C@@]3(O)[C@@H]4C[C@H]5O[C@]56[C@@H](O)C=CC(=O)[C@]6(C)[C@H]4CC[C@]23C)C1 ?
20.1

Which growth inhibition is listed for CO[C@H]1C=CC2=CCN3CCC4=C(CC(=O)OC4)[C@]23C1 ?
-21.9

Which growth inhibition is listed for O=C1NN2CCCN=C2c2cnccc21 ?
27.6

Which growth inhibition is listed for Oc1ccc(CC2NCCc3cc(O)c(O)cc32)cc1O (configuration not stated) ?
26.4

Which growth inhibition is listed for CCOP(=O)(OCC)C(N)Cc1c[nH]c2ccccc12 (configuration not stated) ?
11.6

Which growth inhibition is listed for CC(=O)N1CN2CN(C1)CN(C(C)=O)C2 ?
-9.05

Which growth inhibition is listed for CCC1(CCSC#N)C(=O)NC(=O)NC1=O ?
-3.3

Which growth inhibition is listed for COc1ccc(N2CC=C(c3ccccc3)OP2(=O)N(CCCl)CCCl)cc1 (configuration not stated) ?
6.4

Which growth inhibition is listed for CC1=CC(=O)[C@@H](O)[C@]2(C)[C@H]3[C@@]4(O)OC[C@]35[C@H]([C@@H](C)[C@H]4O)[C@@H](O)C(=O)O[C@@H]5C[C@@H]12 ?
15.2

Which growth inhibition is listed for CCCCCC(N)CC(=O)O (configuration not stated) ?
-2.25

###

measurement description: NCI Yeast Anticancer Drug Screen. Data for the bub3 strain (AID 167)
particulars: S. cerevisiae bub3 mutant strain, at 50.0 µM, active compounds read high
About 79,000 compounds went through this panel and 15% of them were active in at least one assay; those are over-represented in the sample as a whole.
The label depends only on growth inhibition: condition met if it is at least 10%, condition not met if it is smaller.

Can CCC1(c2ccc(C)cc2)C(=O)NC(=S)NC1=O be said to have growth inhibition at or above 10%?
condition met

Can COC(=O)c1ccccc1N be said to have growth inhibition at or above 10%?
condition not met

Can O=C1C(=C([O-])c2ccccc2)C(=O)c2ccccc21.O=C1C(=C([O-])c2ccccc2)C(=O)c2ccccc21.[Fe+2] be said to have growth inhibition at or above 10%?
condition met

Can CC(=O)OC1CC2(O)C(CCC3(C)C(c4ccc(=O)oc4)CCC32O)C2(C)CCC(O)C=C12 (stereo unspecified) be said to have growth inhibition at or above 10%?
condition not met

Can CCOC(=O)C[S][Sn]([Cl])([Cl])[S]CC(=O)OCC be said to have growth inhibition at or above 10%?
condition not met

Can N.N.N.N.N.N#Cc1nn[n-]n1.[Cl-].[Co+3] be said to have growth inhibition at or above 10%?
condition met

###

measurement description: NCI Yeast Anticancer Drug Screen. Data for the cln2 rad14 strain (AID 165);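 note: 0% = growth equal to vehicle treated cultures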
particulars: S. cerevisiae cln2 rad14 strain, at 50.0 µM, active compounds read high
This is part of a sample that, as a whole, favours compounds with a hit. Of some 79,000 tested, about 15% had one in any assay.
Exercise: state measured growth inhibition for each of the compounds provided.
Numbers only; they are read as %.

Which growth inhibition is listed for CN(C)c1ccc([N+](=O)[O-])c([N+](=O)[O-])c1 ?
7.95

Which growth inhibition is listed for CCC1C2Cc3ccc(O)cc3C1(CC)CCN2C (stereo unspecified) ?
-1.65

Which growth inhibition is listed for CC(=O)Nc1nc2c(ncn2C2OCC(OC(C)=O)C(OC(C)=O)C2OC(C)=O)c(=O)[nH]1 (stereo unspecified) (tested in a mixture with another compound) ?
-6.9

Which growth inhibition is listed for O=P(N=C=S)(N=C=S)N=C=S ?
-11.6

Which growth inhibition is listed for CC(=O)[C-](Br)C(C)=O.CC(=O)[C-](Br)C(C)=O.CC(=O)[C-](Br)C(C)=O.[Ru+3] ?
-15.1

Which growth inhibition is listed for C[N+]1=C(c2cccnc2/C=N/O)OCC1(C)C ?
-5.1

Which growth inhibition is listed for Cc1ccc(N[N+](=O)[O-])nc1 ?
-10.2

Which growth inhibition is listed for CC1CN=C(Nc2ccc(F)cc2F)S1 (stereo unspecified) ?
-24.4

Which growth inhibition is listed for CCC1(C/C=C/Cl)C(=O)NC(=O)NC1=O ?
-38.5

Which growth inhibition is listed for C#CC(=O)[O][Sn]([c]1ccccc1)([c]1ccccc1)[c]1ccccc1 ?
99.2

Which growth inhibition is listed for Nc1ccc(C(=O)N/N=C/c2ccc(N(CCBr)CCBr)cc2)cc1 ?
1.95

Origin of the recorded values: PubChem BioAssay (NCI)
